- TEST TARGET: HDAC8 (Homo sapiens)
- Construct: HDAC8 (full length, C-terminal His tag, BPS Bioscience, cat. #: 50008); purchased BPS Bioscience 50008
- Sequence (Q9BY41 1-377): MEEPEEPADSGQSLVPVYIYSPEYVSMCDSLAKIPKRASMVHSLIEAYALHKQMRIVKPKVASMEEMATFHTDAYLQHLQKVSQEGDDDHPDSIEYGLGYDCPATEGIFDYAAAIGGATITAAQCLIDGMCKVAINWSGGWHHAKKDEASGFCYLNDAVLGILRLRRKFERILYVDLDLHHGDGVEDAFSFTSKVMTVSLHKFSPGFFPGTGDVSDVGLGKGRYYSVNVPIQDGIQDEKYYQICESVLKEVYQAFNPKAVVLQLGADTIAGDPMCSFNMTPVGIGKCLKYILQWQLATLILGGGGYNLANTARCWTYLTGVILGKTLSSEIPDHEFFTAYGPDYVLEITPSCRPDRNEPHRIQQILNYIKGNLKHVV
- PROTOCOL DETAILS: Recombinant HDAC µSPOT microarray binding assay;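 on Bottom: relative spot intensity from the six enzyme-concentration slides imaged together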
- CONDITION PARAMETERS: HDAC8 µSPOT microarray dose-response fit, Bottom Value; X = Asuha; sheet Fig. 3 HDAC8
MEASURE: Bottom

stdin: May I ask what Bottom has been recorded for H2B 91-106 (SREIQTAVRLLLPGEL; UniProt P62807 92-107, looked up, fragment) ?
stdout: 0.04

stdin: May I ask what Bottom has been recorded for H2A 49-64 (VYLAAVLEYLTAEILE; UniProt P0C0S8 50-65, looked up, fragment) ?
stdout: 0.02

1: H2A 40-55 (AERVGAGAPVYLAAVL; UniProt P0C0S8 41-56, looked up, fragment)
2: H2A 19-34 (SRAGLQFPVGRVHRLL; UniProt P04908 20-35, looked up, fragment)
stdin: Thinking about recorded Bottom values, which is higher, 1 or 2 ? API: response body contains the label of the selected item.
stdout: 2

###

- TEST TARGET: HDAC8 (Homo sapiens)
- Construct: HDAC8 (full length, C-terminal His tag, BPS Bioscience, cat. #: 50008); purchased BPS Bioscience 50008
- Sequence (Q9BY41 1-377): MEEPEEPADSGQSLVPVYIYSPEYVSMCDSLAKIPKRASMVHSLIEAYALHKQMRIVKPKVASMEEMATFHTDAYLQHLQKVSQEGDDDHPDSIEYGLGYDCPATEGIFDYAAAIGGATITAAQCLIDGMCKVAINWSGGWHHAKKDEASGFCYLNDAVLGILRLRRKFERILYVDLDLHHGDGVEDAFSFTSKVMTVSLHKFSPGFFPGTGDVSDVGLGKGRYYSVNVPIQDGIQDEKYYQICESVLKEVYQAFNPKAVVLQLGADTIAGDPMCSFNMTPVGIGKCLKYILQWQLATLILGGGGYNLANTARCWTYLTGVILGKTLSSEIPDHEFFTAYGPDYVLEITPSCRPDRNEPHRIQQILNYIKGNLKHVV
- PROTOCOL DETAILS: Recombinant HDAC µSPOT microarray binding assay;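 further: peptide µSPOT slides incubated with varying HDAC enzyme concentrations, imaged signal intensity fitted by four-parameter variable-slope regression, EC50 is enzyme concentration giving half-maximal binding, pH 7.4 HEPES buffer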
- CONDITION PARAMETERS: HDAC8 µSPOT microarray dose-response fit, HillSlope Value; X = Asuha; sheet Fig. 3 HDAC8
MEASURE: HillSlope

stdin: May I ask what HillSlope has been recorded for H2A 19-34 (SRAGLQFPVGRVHRLL; UniProt P04908 20-35, looked up, fragment) ?
stdout: 8.22

stdin: May I ask what HillSlope has been recorded for H2A 49-64 (VYLAAVLEYLTAEILE; UniProt P0C0S8 50-65, looked up, fragment) ?
stdout: 0.49

stdin: May I ask what HillSlope has been recorded for H2B 91-106 (SREIQTAVRLLLPGEL; UniProt P62807 92-107, looked up, fragment) ?
stdout: 6.48

stdin: May I ask what HillSlope has been recorded for H2A 40-55 (AERVGAGAPVYLAAVL; UniProt P0C0S8 41-56, looked up, fragment) ?
stdout: 2.67

stdin: May I ask what HillSlope has been recorded for H2A 55-70 (LEYLTAEILELAGNAA; UniProt P0C0S8 56-71, looked up, fragment) ?
stdout: 0.59

P: H2B 64-79 (SFVNDIFERIAGEASR; UniProt P62807 65-80, looked up, fragment)
Q: H2A 79-94 (IPRHLQLAIRNDEELN; UniProt P0C0S8 80-95, looked up, fragment)
stdin: Please choose the item with the lower HillSlope value from this pair: P and Q API: response body contains the label of the selected item.
stdout: P
